# Test system: MDA-MB-435
# PROTOCOL TEXT: NCI tumour cell line growth inhibition, 48 h
Counter-ions that a name gives are not always drawn. Activity calls are given as the source filed them. Rule as the data show it: active = GI50 up to about 1.1 µM and inactive = higher.
METRIC NAME: GI50

-- ask Which value of GI50 has been reported for Cc1ccc(/C=C2/N/C(=N\N=C/C(O)C(O)C(O)CO)NC2=O)cc1 (stereo unspecified) in the records?
-- reply > 100 µM (inactive)

-- ask What would you report for Cc1cc(C)c2c(O)c(S(=O)(=O)c3ccc(Cl)cc3)c(=O)oc2c1 ?
-- reply 51.8 µM (inactive)

-- ask What would you report for CCN(CC)CCNc1nc(N)c(C#N)c(C#N)c1C#N ?
-- reply > 10 µM (inactive)

-- ask What would you report for SC1=NC2=C(CSC/C2=C\c2cccc(Br)c2)C(c2cccc(Br)c2)N1 (stereo unspecified) ?
-- reply 41.3 µM (inactive)

-- ask What would you report for O=c1c2c3c(sc2nc2n1sc1nc4sc5c(c4c(=O)n12)CCCC5)CCCC3 ?
-- reply 51.8 µM (inactive)

-- ask What would you report for CCOC(=O)C(Cl)(Cl)/S(=N\S(=O)(=O)c1ccccc1)NC(=O)c1ccccc1 (stereo unspecified) ?
-- reply > 100 µM (inactive)

-- ask What would you report for CC(C)(C)OC(=O)N1CCc2c(n(C/C=C/c3ccccc3)[nH]c2=O)C1 ?
-- reply > 100 µM (inactive)

-- ask What would you report for CN1[C@@H]2C[C@@H](OC(=O)[C@H](CO)c3ccccc3)C[C@H]1[C@@H]1O[C@@H]12 [SCOPOLAMINE HYDROBROMIDE] ?
-- reply > 100 µM (inactive)

-- ask What would you report for Cc1cn(C2CC(O)C(CO[Si](C)(C)C(C)(C)C)OC2OC(C)C)c(=O)[nH]c1=O (stereo unspecified) ?
-- reply 60 µM (inactive)

-- ask What would you report for Cc1cc(C)c2c(c1)CC1(Cc3c(C)cc(C)cc3C1=O)C2=O (stereo unspecified) ?
-- reply > 100 µM (inactive)

-- ask What would you report for CC(C)CCCC(C)[C@H]1CC[C@H]2N/C(=N/c3ccccc3)CCC[C@]12C (stereo partly specified) ?
-- reply 1.88 µM (inactive)

-- ask What would you report for CCSCCCCC(c1ccc(O)cc1)C(C)(CC)c1ccc(O)cc1 (stereo unspecified) ?
-- reply 18.2 µM (inactive)

-- ask What would you report for Cc1ccc(CC(=O)Nc2ccc(NC(=O)CNC(=O)/C=C/c3ccc(-c4ccccc4)cc3)cc2C(=O)c2ccccc2)cc1 ?
-- reply 3.66 µM (inactive)

-- ask What would you report for O=C1C(CO)=C[C@@H](O)[C@H]2O[C@@H]12 ?
-- reply 25.2 µM (inactive)

-- ask What would you report for CC(=O)c1ccc2c(c1)N(CCCN1CCN(CCO)CC1)c1ccccc1C2 ?
-- reply 8.71 µM (inactive)

-- ask What would you report for O=C1CN(C(=O)C2CCCN2C(=O)C2CCCN2)C(=O)CN1 (stereo unspecified) ?
-- reply 36.8 µM (inactive)
